The values you see were collected from patent US11413278B2.

Tested on: NRF2
Assay: qPCR analysis of NRF2-regulated genes
Type: cell-based, human
Conditions: Homo sapiens; WI-38 cells, 10 μM, 24 hrs, n=4, qPCR normalized by B2M; read-out: HMOX1 Normalized fold change
Let's look at some molecules and their measured fold induction at 10 µM.
API doc: respond with a numeric literal and nothing else, no unit.

CC1C(=O)C(C)C(c2cc(Cl)ccc2O)NC1c1cc(Cl)ccc1O (stereo not shown) [O6] | 3.85
O=C(NCc1cccnc1)/C(=C\c1cccc(Oc2ccccc2)c1)S(=O)(=O)c1ccccc1 [Gr-7A] | 15.2
O=[N+]([O-])c1ccccc1S(=O)(=O)Nc1cccc2cccnc12 [Gr-3A] | 1.41
NS(=O)(=O)c1ccc(NC(=O)c2ccc([N+](=O)[O-])o2)cc1 [Gr-1A] | 0.973

As a next step, examine the molecule that follows.
input: Using NRF2 as the test system, report measured fold induction at 10 µM of O=C(NCc1cccnc1)/C(=C/c1ccc(-c2ccc(Cl)cc2)o1)S(=O)(=O)c1ccccc1 [Gr-7C] .
output: 28

----------
Let's look at some compounds and their measured fold induction at 10 µM.
System: WI-38 cells
Test: MMS resistance assay
Assay type: cell-based, human
Conditions: Homo sapiens, 12 h; Exp. 1, WI-38 cells, 10 uM, normalized ATP measurement; read-out: Exp. 1, under MMS stress treatment, at 10 uM (fold change)
API doc: respond with a numeric literal and nothing else, no unit.

CCCC(=O)Nc1ccc(-c2cn3cccc(C)c3n2)cc1 | 0.78
CCc1ccccc1NC(=O)c1ccc([N+](=O)[O-])o1 | 0.73
O=C(Nc1cc(C(F)(F)F)ccc1Cl)c1ccc([N+](=O)[O-])o1 | 0.7
O=C(NCc1cccnc1)/C(=C\c1cccc(Oc2ccccc2)c1)S(=O)(=O)c1ccccc1 | 0.96
O=C(/C(=C/c1ccc(Cl)cc1)c1nc2ccccc2[nH]1)c1ccccc1 | 1.72

input: Please supply the value of reported fold induction at 10 µM for the item Cc1cc(N)n(-c2ccccc2C(=O)O)n1
output: 2.2

input: Please supply the value of reported fold induction at 10 µM for the item CC(C)(C)c1ccc(OCC(=O)Nc2ccc3c4c(cccc24)C(=O)NC3=O)cc1
output: 3.22

input: Please supply the value of reported fold induction at 10 µM for the item Nc1ccccc1S(=O)(=O)Nc1cccc2cccnc12
output: 1.06

input: Please supply the value of reported fold induction at 10 µM for the item O=C1NCCCc2cc(Cl)sc21
output: 1.2

input: Please supply the value of reported fold induction at 10 µM for the item O=C(NCc1cccnc1)/C(=C\c1ccc(Br)cc1)S(=O)(=O)c1ccccc1
output: 0.39

input: Please supply the value of reported fold induction at 10 µM for the item COc1ccc(C(=O)/C=C/c2ccccc2Br)c(OC)c1
output: 1.22

input: Please supply the value of reported fold induction at 10 µM for the item O=C(c1ccc([N+](=O)[O-])o1)N1CCc2ccccc21
output: 1.11

----------
System: phosphorylated γH2A.X and TP53BP1
Test: DNA damage marker analysis (immuno-staining)
Conditions: human, 24 h
Let's look at some compounds and their measured R = Potential DNA damaging.
API doc: respond with a numeric literal and nothing else, no unit.

These solved cases illustrate the format of a correct answer.
O=C(NCc1cccnc1)/C(=C/c1ccc(-c2ccc(Cl)cc2)o1)S(=O)(=O)c1ccccc1 | 0
Cc1cc(N)n(-c2ccccc2C(=O)O)n1 | 0
[O-][n+]1onc2c3nsnc3c(Br)cc21 | 0
COC(=O)CCc1sc2c(c1[N+](=O)[O-])NC(=O)CCC2 | 0
COc1ccc(/C=C2\SC(=N)N(c3nccs3)C2=O)cc1 | 1

input: Please supply the value of reported R = Potential DNA damaging for the item CCc1ccc(Oc2nc3ccccn3c(=O)c2/C=C(\C#N)C(=O)NC2CCCCC2)cc1
output: 0

input: Please supply the value of reported R = Potential DNA damaging for the item CCc1ccc(Oc2nc3ccccn3c(=O)c2/C=C(\C#N)C(=O)NCc2ccco2)cc1
output: 0

input: Please supply the value of reported R = Potential DNA damaging for the item CCc1ccccc1NC(=O)c1ccc([N+](=O)[O-])o1
output: 1

----------
Tested on: FOXO3
Assay: qPCR analysis of FOXO3-regulated genes
Type: cell-based, human
Details: Homo sapiens; WI-38 cells, 10 μM, 24 hrs, n=4, qPCR normalized by B2M; read-out: DDB1 Normalized fold change
Please note: fold induction at 10 µM exactly at 1 is Criterion not met. Only values below 1 get Criterion met.

Check out these entries, answers already filled in.
NS(=O)(=O)c1ccc(NC(=O)c2ccc([N+](=O)[O-])o2)cc1 [Gr-1A] | Criterion not met
O=C(Nc1nc(C23CC4CC(CC(C4)C2)C3)cs1)C(c1ccccc1)c1ccccc1 [O10] | Criterion met
O=C(Nc1cc(C(F)(F)F)ccc1Cl)c1ccc([N+](=O)[O-])o1 [Gr-1B] | Criterion not met
O=C(/C=C/c1cn(-c2ccccc2)nc1-c1cccnc1)c1ccccc1 [Gr-6B] | Criterion not met

Next, consider the following compound.
input: Is it true that fold induction at 10 µM reported for CCc1ccccc1NC(=O)c1ccc([N+](=O)[O-])o1 [Gr-1C] is less than 1?
output: Criterion not met

----------
Test system: phosphorylated γH2A.X and TP53BP1
Experiment: DNA damage marker analysis (immuno-staining)
Settings: summary score
Let's look at some compounds and their measured P = Potential DNA-damaging.
API doc: respond with a numeric literal and nothing else, no unit.

These solved cases illustrate the format of a correct answer.
COc1ccc(C(=O)/C=C/c2ccccc2Br)c(OC)c1 [Gr-4B] | 0
Oc1ccccc1-c1noc(-c2ccccc2O)n1 [O27] | 1

input: Please supply the value of reported P = Potential DNA-damaging for the item COc1ccc(C(=O)/C=C/c2cccc(Cl)c2)c(OC)c1 [Gr-4C]
output: 0

input: Please supply the value of reported P = Potential DNA-damaging for the item COc1ccc(C(=O)/C=C/c2ccc(F)cc2)c(OC)c1 [Gr-4A]
output: 0

input: Please supply the value of reported P = Potential DNA-damaging for the item COc1cc2c(no[n+]2[O-])n2nnnc12 [O11]
output: 0

----------
Tested on: phosphorylated γH2A.X and TP53BP1
Experiment: DNA damage marker analysis (immuno-staining)
Settings: negative point; cultured human cells
Let's look at some compounds and their measured R = Potential DNA damaging.
API doc: respond with a numeric literal and nothing else, no unit.

COc1ccc(C(=O)/C=C/c2ccccc2Br)c(OC)c1 | 0

input: Please supply the value of reported R = Potential DNA damaging for the item Oc1ccccc1-c1noc(-c2ccccc2O)n1
output: 1

input: Please supply the value of reported R = Potential DNA damaging for the item COc1ccc(C(=O)/C=C/c2ccc(F)cc2)c(OC)c1
output: 0

input: Please supply the value of reported R = Potential DNA damaging for the item COc1ccc(C(=O)/C=C/c2cccc(Cl)c2)c(OC)c1
output: 0

input: Please supply the value of reported R = Potential DNA damaging for the item COc1cc2c(no[n+]2[O-])n2nnnc12
output: 0

----------
System: NRF2
Test: in vitro
Type: cell-based, human
Settings: at least 2 of 3 independent experiments
assayReadout: NRF2-dependency of H2O2-resistance (NRF2 siRNA knockdown)

O=C1NCCCc2cc(Cl)sc21 | significantly attenuate
O=C(NCc1cccnc1)/C(=C\c1cccc(Oc2ccccc2)c1)S(=O)(=O)c1ccccc1 | significantly attenuate
NS(=O)(=O)c1ccc(NC(=O)c2ccc([N+](=O)[O-])o2)cc1 | significantly attenuate

----------
Let's look at some compounds and their measured activity at 10 µM.
System: phosphorylated γH2A.X and TP53BP1
Assay: DNA damage marker analysis (immuno-staining)
Conditions: Homo sapiens, WI-38, 24 h, read-out: Experiment 1, H2A.X-P DNA damage foci staining (no H2O2 stress treatment), at 10 uM
Your answer is read as %, so omit the unit and give the number.

These solved cases illustrate the format of a correct answer.
[O-][n+]1onc2c3nsnc3c(Br)cc21 | 96.7
NS(=O)(=O)c1ccc(NC(=O)c2ccc([N+](=O)[O-])o2)cc1 | 196
Cc1ccc(NC(=O)c2ccc([N+](=O)[O-])o2)cc1C | 219

input: Please supply the value of reported activity at 10 µM for the item CCCN1C/C(=C\c2ccc(F)cc2)C(=O)/C(=C/c2ccc(F)cc2)C1
output: 90

input: Please supply the value of reported activity at 10 µM for the item COC(=O)CCc1sc2c(c1[N+](=O)[O-])NC(=O)CCC2
output: 115

input: Please supply the value of reported activity at 10 µM for the item COc1ccc(C(=O)/C=C/c2cccc(Cl)c2)c(OC)c1
output: 108

input: Please supply the value of reported activity at 10 µM for the item COc1ccc(C(=O)/C=C/c2ccc(F)cc2)c(OC)c1
output: 80.2

----------
Test system: phosphorylated γH2A.X and TP53BP1
Experiment: DNA damage marker analysis (immuno-staining)
Details: Homo sapiens, WI-38, 24 h, read-out: Experiment 1, H2A.X-P DNA damage foci staining (no H2O2 stress treatment), at 10 uM
assayReadout: activity at 10 µM (%)
Your answer is read as %, so omit the unit and give the number.

O=C(Nc1cccc(C(F)(F)F)c1)c1ccc([N+](=O)[O-])o1 [Gr-1E] | 162
O=C(Nc1nc(C23CC4CC(CC(C4)C2)C3)cs1)C(c1ccccc1)c1ccccc1 [O10] | 102
O=C(/C=C/c1cn(-c2ccccc2)nc1-c1cccnc1)c1ccccc1 [Gr-6B] | 93.4
O=C(/C(=C/c1ccc(Cl)cc1)c1nc2ccccc2[nH]1)c1ccccc1 [Gr-4D] | 103
CCc1ccccc1NC(=O)c1ccc([N+](=O)[O-])o1 [Gr-1C] | 217

input: Please supply the value of reported activity at 10 µM for the item COc1ccc(C(=O)/C=C/c2ccccc2Br)c(OC)c1 [Gr-4B]
output: 116

input: Please supply the value of reported activity at 10 µM for the item O=C1NCCCc2cc(Cl)sc21 [O1]
output: 102

input: Please supply the value of reported activity at 10 µM for the item COc1ccc(/C=C2\SC(=N)N(c3nccs3)C2=O)cc1 [O21]
output: 161

input: Please supply the value of reported activity at 10 µM for the item N=C1S/C(=C\c2cn(-c3ccccc3)nc2-c2cccs2)C(=O)N1c1nccs1 [Gr-6C]
output: 181

input: Please supply the value of reported activity at 10 µM for the item O=C(Nc1ccc(Cl)c(Cl)c1)c1ccc([N+](=O)[O-])o1 [Gr-1G]
output: 150
